Would you kindly list pIC50 for each of these compounds?
Target: KRAS G12C and cRAF (Ras-binding domain) interaction (Homo sapiens (Human), UniProt P01116, C118S/C51S/C80L/G12C)
Sequence (P01116 other isoform, or with tags, fused parts or gaps G12C/C51S/C80L/C118S): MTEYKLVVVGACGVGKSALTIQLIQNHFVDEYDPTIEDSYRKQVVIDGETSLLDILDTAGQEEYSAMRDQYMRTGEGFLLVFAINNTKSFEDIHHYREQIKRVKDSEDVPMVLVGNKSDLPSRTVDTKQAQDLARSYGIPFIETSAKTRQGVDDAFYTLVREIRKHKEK
Test: Inhibition of KRAS G12C and cRAF binding (AlphaScreen)
Details: additional exemplary compounds; KRAS G12C and cRAF binding; read-out: RAF1 RBD IC50
pIC50: −log10 of the molar value.

compound: C=CC(=O)N1C[C@@H](C)C[C@@H](Nc2nc(OC[C@@]34CCCN3C[C@H](F)C4)nc3c(F)c(-c4cccc5cccc(Cl)c45)ncc23)C1
endpointLabel: pIC50
result: < 6.30
//
compound: CC(C)c1noc(/C=C/C(=O)N2CCN(c3nc(OCC45CCCN4CCC5)nc4c3CCN(c3cccc5cccc(Cl)c35)C4)CC2)n1
endpointLabel: pIC50
result: < 6.30

// below: pIC50 requested for another compound
Entry C=CC(=O)N1CCC1CN(C)c1nc(OC[C@@]23CCCN2C[C@H](F)C3)nc2c1CCN(c1cccc3cccc(Cl)c13)C2 (stereo partly drawn) — recorded pIC50 = < 6.30

* * *

Target: KRAS G12C and cRAF (Ras-binding domain) interaction (Homo sapiens (Human), UniProt P01116, C118S/C51S/C80L/G12C)
Experiment: Inhibition of KRAS G12C and cRAF binding (AlphaScreen)
Conditions: GMPPNP-loaded KRAS G12C, 19-20 hours incubation with compound; read-out: IC50 (Inhibition of KRAS G12C and cRAF Binding)
Would you kindly list IC50 for each of these compounds?

Some compounds with known IC50 results, for comparison:
recordSmiles: C#Cc1c(F)ccc2cccc(-c3ncc4c(N(C)[C@@H]5CCN(C(=O)/C=C/CN6CC[C@@H](F)C6)C5)nc(OC[C@@]56CCCN5C[C@H](F)C6)nc4c3F)c12
endpointLabel: IC50
result: 10 to 100 nM
//
recordSmiles: C=CC(=O)N1C[C@H](C)[C@@H](N(C)c2nc(OC[C@@]34CCCN3C[C@H](F)C4)nc3c(F)c(-c4cccc5cccc(Cl)c45)ncc23)C1
endpointLabel: IC50
result: 100 to 500 nM
//
recordSmiles: CN(CCS(=O)(=O)/C=C/CN1CC(F)C1)c1nc(OC[C@@H]2CCCN2C)nc2c1CCN(c1cccc3cccc(Cl)c13)C2
endpointLabel: IC50
result: 100 to 500 nM
//
recordSmiles: C=CC(=O)N1CC(F)(CN(C)c2nc(OC[C@@]34CCCN3C[C@H](F)C4)nc3c(F)c(-c4cccc5ccc(F)c(Cl)c45)ncc23)C1
endpointLabel: IC50
result: 100 to 500 nM

// below: IC50 requested for another compound
Entry `CCc1c(F)ccc2cccc(-c3ncc4c(N(C)[C@@H]5CCN(C(=O)/C=C/[C@H]6CCN6C)C5)nc(OC[C@@]56CCCN5C[C@H](F)C6)nc4c3F)c12` — recorded IC50 = 10 to 100 nM

* * *

Biological target: KRAS G12C and cRAF (Ras-binding domain) interaction (Homo sapiens (Human), UniProt P01116, C118S/C51S/C80L/G12C)
Assay: Inhibition of KRAS G12C and cRAF binding (AlphaScreen)
Conditions: GMPPNP-loaded KRAS G12C, 19-20 hours incubation with compound; read-out: IC50 (Inhibition of KRAS G12C and cRAF Binding)
pIC50: −log10 of the molar value.
endpointLabel: pIC50

Some compounds with known pIC50 results, for comparison:
compound: CN(c1nc(OC[C@@]23CCCN2C[C@H](F)C3)nc2c(F)c(-c3cccc4cccc(Cl)c34)ncc12)[C@@H]1CCN(C(=O)C#CC2CCNC2)C1 (stereo partly shown)
endpointLabel: pIC50
result: 7.00 to 8.00
//
compound: CN(CC1CN(C(=O)/C=C/c2nc(C3CC3)no2)C1)c1nc(OC[C@@]23CCCN2C[C@H](F)C3)nc2c(F)c(-c3cccc4cccc(Cl)c34)ncc12
endpointLabel: pIC50
result: 6.30 to 7.00
//
compound: C[C@@H](F)c1noc(/C=C/C(=O)N2CC(CN(C)c3nc(OC[C@@]45CCCN4C[C@H](F)C5)nc4c(F)c(-c5cccc6cccc(Cl)c56)ncc34)C2)n1
endpointLabel: pIC50
result: > 8.00
//
compound: C=CC(=O)N1CC[C@@H](N(C)c2nc(OC[C@@]34CCCN3C[C@H](F)C4)nc3c(F)c(-c4cc(O)cc5ccccc45)ncc23)C1
endpointLabel: pIC50
result: > 8.00
//
compound: C=CC(=O)N1C[C@H](F)[C@@H](N(C)c2nc(OCC34CCCN3CCC4)nc3c(F)c(-c4cccc5ccc(F)c(Cl)c45)ncc23)C1
endpointLabel: pIC50
result: 7.00 to 8.00

List the reported pIC50 of each compound below.
1. COC(=O)/C=C/C(=O)N1CCC(N(C)c2nc(OC[C@@H]3CCCN3C)nc3c(F)c(-c4cccc5cccc(Cl)c45)ncc23)C1 (stereo partly shown)
2. Cc1nsc(/C=C/C(=O)N2C[C@H](F)[C@@H](N(C)c3nc(OC[C@@]45CCCN4C[C@H](F)C5)nc4c(F)c(-c5cccc6cccc(Cl)c56)ncc34)C2)n1

Return:
1: > 8.00; 2: 6.30 to 7.00

* * *

Biological target: KRAS G12C and cRAF (Ras-binding domain) interaction (Homo sapiens (Human), UniProt P01116, C118S/C51S/C80L/G12C)
Assay: Inhibition of KRAS G12C and cRAF binding (AlphaScreen)
Settings: GMPPNP-loaded KRAS G12C, 19-20 hours incubation with compound; read-out: IC50 (Inhibition of KRAS G12C and cRAF Binding)
endpointLabel: IC50

Some compounds with known IC50 results, for comparison:
compound: CN(c1nc(OCC23CCCN2CCC3)nc2c(F)c(-c3cccc4cccc(Cl)c34)ncc12)[C@@H]1CCN(C(=O)/C=C/c2nc(C(C)(C)C)no2)C1 [Example 147]
endpointLabel: IC50
result: 0.01 to 0.1 µM

compound: C=CC(=O)[C@@H]1[C@@H]2CN(c3nc(OC[C@@H]4CCCN4C)nc4c3CCN(c3cccc5cccc(Cl)c35)C4)C[C@@H]21 [Example 45]
endpointLabel: IC50
result: 0.01 to 0.1 µM

compound: C=CC(=O)N1C[C@H](N(C)c2nc(OCC34CCCN3CCC4)nc3c(F)c(-c4cccc5cccc(Cl)c45)ncc23)C[C@H]1CC#N [Example 119]
endpointLabel: IC50
result: 0.1 to 0.5 µM

compound: CCc1c(F)ccc2cccc(-c3ncc4c(N(C)[C@@H]5CCN(C(=O)/C=C/c6ccnc(C)n6)C5)nc(OC[C@@]56CCCN5C[C@H](F)C6)nc4c3F)c12 [Example 277]
endpointLabel: IC50
result: 0.1 to 0.5 µM

compound: Cc1nc(C)c(F)c(/C=C/C(=O)N2CC[C@@H](N(C)c3nc(OC[C@@]45CCCN4C[C@H](F)C5)nc4c(F)c(-c5cccc6ccc(F)c(F)c56)ncc34)C2)n1 [Example 294]
endpointLabel: IC50
result: 0.1 to 0.5 µM

compound: Cc1cc(/C=C/C(=O)N2CC(CN(C)c3nc(OC[C@@]45CCCN4C[C@H](F)C5)nc4c(F)c(-c5cccc6cccc(Cl)c56)ncc34)C2)nc(C)n1 [Example 275]
endpointLabel: IC50
result: 0.1 to 0.5 µM

List the reported IC50 of each compound below.
1. CN1C[C@@H](O)C[C@@H]1C#CC(=O)N1CC[C@@H](N(C)c2nc(OC[C@@]34CCCN3C[C@H](F)C4)nc3c(F)c(-c4cccc5cccc(Cl)c45)ncc23)C1 [Example 248]
2. C=CC(=O)N1CC(CN(C)c2nc(OC[C@@]34CCCN3C[C@H](F)C4)nc3c(F)c(-c4cccc5ccc(F)c(CC)c45)ncc23)C1 [Example 254]
3. Cc1nsc(/C=C/C(=O)N2CC(CN(C)c3nc(OC[C@@]45CCCN4C[C@H](F)C5)nc4c(F)c(-c5cccc6cccc(Cl)c56)ncc34)C2)n1 [Example 74]
4. CN(CC1CN(C(=O)/C=C/c2nc(C3CC3)no2)C1)c1nc(OCC23CCCN2CCC3)nc2c(F)c(-c3cccc4cccc(Cl)c34)ncc12 [Example 173]
5. COC(=O)/C=C/C(=O)N1CCC(N(C)c2nc(OC[C@@H]3CCCN3C)nc3c2CCN(c2cccc4ccc(F)c(Cl)c24)C3)C1 (stereo partly shown) [Example 2]
6. CN(CC1CN(C#N)C1)c1nc(OC[C@@H]2CCCN2C)nc2c1CCN(c1cccc3cccc(Cl)c13)C2 [Example 30]
7. CN(CC1CN(C(=O)/C=C/[C@@H]2CCN2C)C1)c1nc(OC[C@@]23CCCN2C[C@H](F)C3)nc2c(F)c(-c3cccc4cccc(Cl)c34)ncc12 [Example 218]

Return:
0.01 to 0.1 µM
0.01 to 0.1 µM
0.1 to 0.5 µM
0.01 to 0.1 µM
0.01 to 0.1 µM
> 0.5 µM
0.01 to 0.1 µM
